Can you tell me Growth inhibition percent for the items I'm about to list?
- Tested on: Lewis pulmonary carcinoma (LLC)
- assay.explanation: Lewis pulmonary carcinoma growth; also: test concentration or dose not given here
- Assay type: in vivo
- test.conditions: mice with LLC, day 12; compound in drinking water
Numbers only, in %.

Example molecules with recorded Growth inhibition percent:
mol: O=C(O)CCCC(=O)NCCc1c[nH]cn1
target: Lewis pulmonary carcinoma (LLC)
Growth inhibition percent (%): 53

mol: COc1ccc2[nH]cc(CCNC(=O)CCCC(=O)O)c2c1
target: Lewis pulmonary carcinoma (LLC)
Growth inhibition percent (%): 56

mol: O=C(O)CCCC(=O)NCCc1ccccc1
target: Lewis pulmonary carcinoma (LLC)
Growth inhibition percent (%): 25

mol: O=C(O)CCCC(=O)NCCc1c[nH]c2ccccc12
target: Lewis pulmonary carcinoma (LLC)
Growth inhibition percent (%): 48

mol: O=C(O)CCC(=O)NCCc1c[nH]cn1
target: Lewis pulmonary carcinoma (LLC)
Growth inhibition percent (%): 61

For every listed record, write down its Growth inhibition percent.
1. COC(=O)[C@H](Cc1c[nH]cn1)NC(=O)CCCC(=O)O
2. O=C(O)CCCC(=O)NCCc1ccccn1
3. O=C(O)CCCC(=O)NCCN1CCOCC1

Reply:
1. 10
2. 16
3. 28

Respectfully, I request Growth inhibition percent for each entry included below.
1. O=C(O)CCCC(=O)NCCc1c[nH]c2ccc(OCc3ccccc3)cc12
2. O=C(O)CCCC(=O)NCCc1c[nH]c2ccc(O)cc12
3. NCCCC(=O)NCCc1c[nH]cn1

Reply:
68
63
45
